Tested on: 786-0 complex spheroids with HUVEC/MSC, growth % test/control
Assay: Anticancer human tumor 786-0 cell line growth inhibition [AhR]; active = viability on the fitted dose curve at most 10% of control; inactive = the rest;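 note: compound exposure lasted seven days before the read-out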
Conditions: second compound 10 µM; first compound 0.000949 µM
From the text: Multicellular complex tumor spheroid response to aryl hydrocarbon receptor antagonists in combination with a variety of drugs and investigational agents in selected tumor cell lines […] Compounds. […] If the clinical Cmax for an agent had not been determined, the highest concentration tested was 10 microM (Table 1). […]
# output must be one of YES for active, NO for inactive

For CCc1c2c(nc3ccc(O)cc13)-c1cc3c(c(=O)n1C2)COC(=O)[C@]3(O)CC + Cc1ccccc1N=Nc1ccc(NC(=O)c2ccnn2C)c(C)c1 , which call appears in the assay record?
NO

Also CC(C)CC(NC(=O)C(Cc1ccccc1)NC(=O)c1cnccn1)B(O)O (centres undefined) + Cc1ccccc1N=Nc1ccc(NC(=O)c2ccnn2C)c(C)c1 ?
NO

Also CCc1c2c(nc3ccc(O)cc13)-c1cc3c(c(=O)n1C2)COC(=O)[C@]3(O)CC + Cc1cncc(-c2nc(NCCc3c[nH]c4ccccc34)c3ncn(C(C)C)c3n2)c1 ?
YES

Also Nc1ncn(C2CC(O)C(CO)S2)c(=O)n1 (centres undefined) + CC(CO)NC(=O)c1cc(-c2ccc(Cl)cc2)nn(-c2cnn(C)c2)c1=O ?
NO
